- System: Pseudomonas aeruginosa
- PROTOCOL SUMMARY: Antibacterial activity against Pseudomonas aeruginosa MTCC 102 incubated for 24 hrs under dark condition by microwell dilution method
- Format: functional
- CONDITION PARAMETERS: MTCC 102, 24 h
MEASURE NAME: MIC (µg/mL)
One number for each entry, in µg/mL.

Answered examples (6):
Cc1ccc(C2C3CNc4c(cccc4[N+](=O)[O-])C3=NN2c2ccccc2)cc1 (stereo unspecified) : 200
N#CC1=C(N)OC2=C(CNc3c2cccc3[N+](=O)[O-])C1c1ccc(Br)cc1 (stereo unspecified) : 37
O=[N+]([O-])c1cccc2c1NCC1C2=NN(c2ccccc2)C1c1ccc(F)cc1 (stereo unspecified) : 55.5
O=[N+]([O-])c1cc(Cl)cc2c1NCC1C2=NNC1c1ccc(F)cc1 (stereo unspecified) : 200
N#CC1=C(N)OC2=C(CNc3c2cccc3[N+](=O)[O-])C1c1ccc(Cl)cc1 (stereo unspecified) : 55.5
COc1ccc(C2C(C#N)=C(N)OC3=C2CNc2c3cccc2[N+](=O)[O-])cc1 (stereo unspecified) : 37

Please give MIC, item by item, for the list that follows.
1. N#CC1=C(N)OC2=C(CNc3c2cc(Cl)cc3[N+](=O)[O-])C1c1ccc(Cl)cc1 (stereo unspecified)
2. COc1ccc(C2C(C#N)=C(N)OC3=C2CNc2c3cccc2[N+](=O)[O-])c(OC)c1 (stereo unspecified)
3. COc1ccc(C2C3CNc4c(cccc4[N+](=O)[O-])C3=NN2c2ccccc2)cc1OC (stereo unspecified)
4. COc1ccc(C2C(C#N)=C(N)OC3=C2CNc2c3cccc2[N+](=O)[O-])cc1OC (stereo unspecified)
5. O=[N+]([O-])c1cccc2c1NCC1C2=NN(c2ccccc2)C1c1ccc(Br)cc1 (stereo unspecified)
6. Cc1ccc(C2C(C#N)=C(N)OC3=C2CNc2c3cccc2[N+](=O)[O-])cc1 (stereo unspecified)
7. O=[N+]([O-])c1cc(Cl)cc2c1NCC1C2=NNC1c1ccc(Cl)cc1 (stereo unspecified)

1. 55.5
2. 150
3. 55.5
4. 150
5. 55.5
6. 55.5
7. 100

Please give MIC, item by item, for the list that follows.
1. N#CC1=C(N)OC2=C(CNc3c2cccc3[N+](=O)[O-])C1c1cccs1 (stereo unspecified)
2. CC1(C)S[C@@H]2[C@H](NC(=O)[C@H](N)c3ccccc3)C(=O)N2[C@H]1C(=O)O

37
18.5

Please give MIC, item by item, for the list that follows.
1. COc1ccc(N2N=C3c4cc(Cl)cc([N+](=O)[O-])c4NCC3C2c2ccc(Cl)cc2)cc1 (stereo unspecified)
2. CCOc1ccc(C2C3CNc4c(cccc4[N+](=O)[O-])C3=NN2c2ccccc2)c(OCC)c1 (stereo unspecified)
3. N#CC1=C(N)OC2=C(CNc3c2cccc3[N+](=O)[O-])C1c1ccc(F)cc1 (stereo unspecified)
4. O=[N+]([O-])c1cccc2c1NCC1C2=NN(c2ccccc2)C1c1ccc(Cl)cc1 (stereo unspecified)
5. COc1ccc(C2C3CNc4c(cccc4[N+](=O)[O-])C3=NN2c2ccccc2)cc1 (stereo unspecified)
6. O=[N+]([O-])c1cccc2c1NCC1C2=NN(c2ccccc2)C1c1ccccc1 (stereo unspecified)

1. 100
2. 55.5
3. 37
4. 100
5. 200
6. 150

====

- PROTOCOL SUMMARY: Antioxidant activity assessed as assessed as ferric ion reducing activity by measuring absorbance at 700 nm at 100 ug/ml after 20 mins by spectrophotometric method
- Format: functional
Outcome: True for OD of at least 0.1; False for anything lower.

Check this compound for OD at or above 0.1: Cc1ccc(C2C3CNc4c(cccc4[N+](=O)[O-])C3=NN2c2ccccc2)cc1 (stereo not given)
True

Check this compound for OD at or above 0.1: N#CC1=C(N)OC2=C(CNc3c2cc(Cl)cc3[N+](=O)[O-])C1c1ccc(Cl)cc1 (stereo not given)
True

Check this compound for OD at or above 0.1: `Cc1cc(C(C)(C)C)c(O)c(C(C)(C)C)c1`
True

Check this compound for OD at or above 0.1: O=[N+]([O-])c1cccc2c1NCC1C2=NN(c2ccccc2)C1c1ccccc1 (stereo not given)
False

====

Assignment: determine reported OD for the given molecules.
- PROTOCOL SUMMARY: Antioxidant activity assessed as assessed as ferric ion reducing activity by measuring absorbance at 700 nm at 20 ug/ml after 20 mins by spectrophotometric method
- Assay type: functional

O=[N+]([O-])c1cccc2c1NCC1C2=NN(c2ccccc2)C1c1ccc(Br)cc1 (stereo not given) : 0.09
Cc1ccc(C2C(C#N)=C(N)OC3=C2CNc2c3cccc2[N+](=O)[O-])cc1 (stereo not given) : 0.09
N#CC1=C(N)OC2=C(CNc3c2cccc3[N+](=O)[O-])C1c1ccc(Cl)cc1 (stereo not given) : 0.088
O=[N+]([O-])c1cccc2c1NCC1C2=NN(c2ccccc2)C1c1ccc(F)cc1 (stereo not given) : 0.092

What value of OD has been reported for the following molecule? COc1ccc(C2C3CNc4c(cccc4[N+](=O)[O-])C3=NN2c2ccccc2)cc1 (stereo not given)
0.091
